Source: patent US12357631B2

Would you mind telling me the reported pEC50 of each entry?
- measurement.target: PB2 (Influenza A virus, UniProt P03428)
- Sequence (P03428 whole entry, looked up): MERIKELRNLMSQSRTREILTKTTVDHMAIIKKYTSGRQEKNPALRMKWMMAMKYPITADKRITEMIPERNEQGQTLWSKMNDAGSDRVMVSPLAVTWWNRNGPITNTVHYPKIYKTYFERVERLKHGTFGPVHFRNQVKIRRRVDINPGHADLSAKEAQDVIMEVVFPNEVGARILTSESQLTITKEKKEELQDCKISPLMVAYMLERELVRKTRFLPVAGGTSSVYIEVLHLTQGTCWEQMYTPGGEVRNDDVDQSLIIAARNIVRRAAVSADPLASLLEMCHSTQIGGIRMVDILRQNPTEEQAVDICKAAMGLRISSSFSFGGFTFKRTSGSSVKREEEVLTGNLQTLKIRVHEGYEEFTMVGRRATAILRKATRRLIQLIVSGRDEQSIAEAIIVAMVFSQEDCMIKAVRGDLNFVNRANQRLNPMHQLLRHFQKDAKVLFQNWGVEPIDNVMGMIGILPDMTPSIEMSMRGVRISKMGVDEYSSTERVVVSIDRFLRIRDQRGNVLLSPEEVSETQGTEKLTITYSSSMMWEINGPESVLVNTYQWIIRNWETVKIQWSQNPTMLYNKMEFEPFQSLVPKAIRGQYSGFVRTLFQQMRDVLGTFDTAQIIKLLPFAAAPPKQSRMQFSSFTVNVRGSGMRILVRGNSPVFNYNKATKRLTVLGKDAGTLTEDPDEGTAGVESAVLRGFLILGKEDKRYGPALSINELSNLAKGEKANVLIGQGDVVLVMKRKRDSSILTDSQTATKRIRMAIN
- protocol.summary: biochemical
pEC50: −log10 of the molar value.

O=C(N[C@H]1CCC[C@@H](Nc2nc(-c3c[nH]c4ncc(F)cc34)ncc2F)C1)N1CCCC(CCCOCCO)C1 (stereo partly shown) : 4.60 to 5.30
Cc1ccc(CNC(=O)OCc2ccnc(C(=O)N[C@H]3CCC[C@@H](Nc4nc(-c5c[nH]c6ncc(F)cc56)ncc4F)C3)c2)cc1 : < 4.00

Quick batch: pEC50 for everything below.
1. CCCOCCCCCCCN(C)C(=O)N[C@@H]1CCC[C@H](Nc2nc(-c3c[nH]c4ncc(F)cc34)ncc2F)C1 [Compound A236]
2. CC(C)[C@H](NC(=O)OCc1ccnc(C(=O)N[C@@H]2CCC[C@H](Nc3nc(-c4c[nH]c5ncc(F)cc45)ncc3F)C2)c1)C(=O)O
3. Cc1cncc(C(=O)N[C@@H]2CCC[C@H](Nc3nc(-c4c[nH]c5ncc(F)cc45)ncc3F)C2)c1
4. CCCOCCOCCCCN(C)C(=O)N[C@H]1CCC[C@@H](Nc2nc(-c3c[nH]c4ncc(F)cc34)ncc2F)C1
5. CCOc1ccc(CNC(=O)OCc2ccnc(C(=O)N[C@H]3CCC[C@@H](Nc4nc(-c5c[nH]c6ncc(F)cc56)ncc4F)C3)c2)cc1
6. CCOCCOCCCCCN(C)C(=O)NC1CCC(Nc2nc(-c3c[nH]c4ncc(F)cc34)ncc2F)C1 (stereo not shown)
7. O=C(O)CNC(=O)OCc1ccnc(C(=O)N[C@@H]2CCC[C@H](Nc3nc(-c4c[nH]c5ncc(F)cc45)ncc3F)C2)c1

Result ::
["4.00 to 4.30", "4.60 to 5.30", "> 5.30", "< 4.00", "< 4.00", "< 4.00", "> 5.30"]

Hello, I would appreciate it if you could give pEC50 for each entry below.
1. CCCCCCOCCCCN(C)C(=O)N[C@H]1CCC[C@@H](Nc2nc(-c3c[nH]c4ncc(F)cc34)ncc2F)C1
2. CCOc1ccc(CNC(=O)OCc2cc(C(=O)N[C@H]3CCC[C@@H](Nc4nc(-c5c[nH]c6ncc(F)cc56)ncc4F)C3)ncc2F)cc1
3. O=C(N[C@H]1CCC[C@@H](Nc2nc(-c3c[nH]c4ncc(F)cc34)ncc2F)C1)c1ccccn1

Result ::
1. < 4.00
2. < 4.00
3. 4.00 to 4.30

Query :: Quick check: pEC50 on PB2 (Influenza A virus, UniProt P03428), item `CCOCCOCCCCCNC(=O)N[C@@H]1CCC[C@H](Nc2nc(-c3c[nH]c4ncc(F)cc34)ncc2F)C1` ?
Result :: < 4.00

---

Exercise: state measured pEC50 for each of the molecules provided.
- measurement.target: PB2 (Influenza A virus, UniProt P03428)
- protocol.summary: biochemical
pEC50: −log10 of the molar value.

Please review the entries below; each comes with its answer.
O=C(N[C@H]1CCC[C@@H](Nc2nc(-c3c[nH]c4ncc(F)cc34)ncc2F)C1)c1cccnc1 : < 4.00
CCOCCCCCCCCN(C)C(=O)N[C@H]1CCC[C@@H](Nc2nc(-c3c[nH]c4ncc(F)cc34)ncc2F)C1 : < 4.00
O=C(CNC(=O)OCc1ccnc(C(=O)N[C@H]2CCC[C@@H](Nc3nc(-c4c[nH]c5ncc(F)cc45)ncc3F)C2)c1)Nc1ccccc1C(=O)O : > 5.30

Look at each molecule and report its pEC50.
1. O=C(N[C@@H]1CCC[C@H](Nc2nc(-c3c[nH]c4ncc(F)cc34)ncc2F)C1)c1cc(Oc2ccccc2)ccn1
2. CCCOCCCCCCCN(C)C(=O)N[C@@H]1CCC[C@H](Nc2nc(-c3c[nH]c4ncc(F)cc34)ncc2F)C1 [Compound A235]
3. O=C(N[C@@H]1CCC[C@H](Nc2nc(-c3c[nH]c4ncc(F)cc34)ncc2F)C1)c1cc(-c2ccc(F)cc2)ccn1

Result ::
1. < 4.00
2. 4.00 to 4.30
3. 4.60 to 5.30

---

- measurement.target: PB2 (Influenza A virus, UniProt P03428)
- protocol.summary: biochemical
pEC50: −log10 of the molar value.
experimental.endpoint: pEC50

// solved cases for pEC50 follow
CCCCCOCCOCCNC(=O)N[C@@H]1CCC[C@H](Nc2nc(-c3c[nH]c4ncc(F)cc34)ncc2F)C1 : 4.00 to 4.30
Cc1cccc(CNC(=O)OCc2ccnc(C(=O)N[C@H]3CCC[C@@H](Nc4nc(-c5c[nH]c6ncc(F)cc56)ncc4F)C3)c2)c1 : < 4.00

Then this compound:
Query :: Please look up its pEC50: CC(NC(=O)OCc1ccnc(C(=O)N[C@H]2CCC[C@@H](Nc3nc(-c4c[nH]c5ncc(F)cc45)ncc3F)C2)c1)c1ccccc1F (stereo partly drawn)
Result :: < 4.00

---

- measurement.target: PB2 (Influenza A virus)
- protocol.summary: biochemical
For each of the compounds below, state its EC50.

Solved cases (4 shown):
CCOC(=O)CCOCCOCCOCC(=O)N1CCC[C@@H](Nc2nc(-c3c[nH]c4ncc(F)cc34)ncc2F)C1 : 5 to 25 µM
CCOCCCc1ccnc(C(=O)N[C@@H]2CCC[C@H](Nc3nc(-c4c[nH]c5ncc(F)cc45)ncc3F)C2)c1 : 25 to 50 µM
CCOCCOCCCCCN(CC)C(=O)N[C@H]1CCC[C@@H](Nc2nc(-c3c[nH]c4ncc(F)cc34)ncc2F)C1 [Compound A228] : 50 to 100 µM
CCOCCCCCOCCN(Cc1ccccc1)C(=O)N[C@H]1CCC[C@@H](Nc2nc(-c3c[nH]c4ncc(F)cc34)ncc2F)C1 : > 100 µM

Below are 3 compounds. Give each one its EC50.
1. O=C(NCc1ccccc1)OCc1ccnc(C(=O)N[C@@H]2CCC[C@H](Nc3nc(-c4c[nH]c5ncc(F)cc45)ncc3F)C2)c1
2. CN(CCOCCOCCOCCN)C(=O)N[C@@H]1CCC[C@H](Nc2nc(-c3c[nH]c4ncc(F)cc34)ncc2F)C1
3. CCCCCOCCOCC(=O)N[C@H]1CCC[C@@H](Nc2nc(-c3c[nH]c4ncc(F)cc34)ncc2F)C1

Result ::
["> 100 µM", "50 to 100 µM", "> 100 µM"]

---

- measurement.target: PB2 (Influenza A virus, UniProt P03428)
- protocol.summary: biochemical
pEC50: −log10 of the molar value.
experimental.endpoint: pEC50

Example entries and their recorded answers appear below.
CCOCCOCCCCCN(Cc1cncnc1)C(=O)N[C@H]1CCC[C@@H](Nc2nc(-c3c[nH]c4ncc(F)cc34)ncc2F)C1 [Compound A209] : < 4.00
NCCOCCOCCOCC(=O)N[C@@H]1CCC[C@H](Nc2nc(-c3c[nH]c4ncc(F)cc34)ncc2F)C1 [Compound A267] : 4.30 to 4.60
CCOc1ccccc1OCCCCCN(C)C(=O)N[C@@H]1CCC[C@H](Nc2nc(-c3c[nH]c4ncc(F)cc34)ncc2F)C1 [Compound A216] : < 4.00
C[C@@H](NC(=O)OCc1ccnc(C(=O)N[C@@H]2CCC[C@H](Nc3nc(-c4c[nH]c5ncc(F)cc45)ncc3F)C2)c1)C(=O)O [Compound A141] : > 5.30
CCOCCOCCCCCN(C(=O)N[C@@H]1CCC[C@H](Nc2nc(-c3c[nH]c4ncc(Cl)cc34)ncc2F)C1)C(C)C [Compound A248] : < 4.00
CCCCCOCCCc1ccnc(C(=O)N[C@@H]2CCC[C@H](Nc3nc(-c4c[nH]c5ncc(F)cc45)ncc3F)C2)c1 [Compound A27] : < 4.00

Dear colleague, could you please provide pEC50 for the molecules listed below?
1. CC(NC(=O)OCc1ccnc(C(=O)N[C@H]2CCC[C@@H](Nc3nc(-c4c[nH]c5ncc(F)cc45)ncc3F)C2)c1)c1ccc(F)cc1 (stereo partly shown) [Compound A131]
2. O=C(N[C@H]1CCC[C@@H](Nc2nc(-c3c[nH]c4ncc(F)cc34)ncc2F)C1)N1CCc2ccccc21 [Compound A14]
3. CCOCCOCCOCCS(=O)(=O)N[C@@H]1CCC[C@H](Nc2nc(-c3c[nH]c4ncc(F)cc34)ncc2F)C1 [Compound A266]
4. CCC(CC)OCCNC(=O)OCc1ccnc(C(=O)N[C@H]2CCC[C@@H](Nc3nc(-c4c[nH]c5ncc(F)cc45)ncc3F)C2)c1 [Compound A128]

Result ::
1: < 4.00; 2: 4.00 to 4.30; 3: 4.60 to 5.30; 4: < 4.00

---

Record type: IC50 measurement. Applies to: PB2 CDlp7028 H3N2 (Influenza A virus, UniProt P31345)

Would you please look over these solved cases?
CCOCCOCCCCCN(C)C(=O)N[C@@H]1CCC[C@H](Nc2nc(-c3c[nH]c4ncc(F)cc34)ncc2F)C1 : 25 to 50 µM
CCOCCOCCOCCN(C)C(=O)N[C@@H]1CCC[C@H](Nc2nc(-c3c[nH]c4ncc(F)cc34)ncc2F)C1 : 50 to 100 µM
CCOCCOCCCCC(=O)N[C@@H]1CCC[C@H](Nc2nc(-c3c[nH]c4ncc(F)cc34)ncc2F)C1 : > 100 µM
CCNC(=O)OCc1ccnc(C(=O)N[C@@H]2CCC[C@H](Nc3nc(-c4c[nH]c5ncc(F)cc45)ncc3F)C2)c1 : < 5 µM
O=C(COCCOCCOCCO)N1CCC[C@H](Nc2nc(-c3c[nH]c4ncc(F)cc34)ncc2F)C1 : 5 to 25 µM

// moving on: another record for IC50
Query :: Please give the measured IC50 for this compound: `CCOCCOCCOCC(=O)N1CCC[C@H](Nc2nc(-c3c[nH]c4ncc(F)cc34)ncc2F)C1`
Result :: 5 to 25 µM
